These entries and their values trace back to patent US11827701B2.

- target: T1, bacterially produced human IL-6 (Homo sapiens, UniProt P05231)
- T1 construct: His
- T1 sequence (P05231 30-212): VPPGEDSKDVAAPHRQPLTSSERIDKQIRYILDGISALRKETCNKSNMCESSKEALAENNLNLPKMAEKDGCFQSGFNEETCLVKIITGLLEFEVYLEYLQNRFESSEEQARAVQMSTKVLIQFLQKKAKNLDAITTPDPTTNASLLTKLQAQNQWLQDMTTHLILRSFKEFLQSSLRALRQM
- experimental-protocol: Surface plasmon resonance (Biacore), bacterially produced human IL-6 coated on CM5 chip
- Assay type: binding
- run-parameters: bact; periplasmic fractions, 29B11 chain shuffled
- Method: The binding kinetics of IL-6-specific Fabs that were able to cross-compete with the B-E8 antibody was assessed using surface plasmon resonance (Biacore). […] From the washing phase the off-rate (kd) was determined, while from the injection phase the on-rate (ka) was calculated using the concentration and off-rate as parameters. […]
Here the recorded kd is given for each entry.
Please give a number only; it is taken to be in s⁻¹.

Exercise: Value lookup for kd; key = 47C2 (R4): 29B11 chain shuffled Fab, periplasmic fraction (antibody, listed as Lama glama, V domains shown) VH: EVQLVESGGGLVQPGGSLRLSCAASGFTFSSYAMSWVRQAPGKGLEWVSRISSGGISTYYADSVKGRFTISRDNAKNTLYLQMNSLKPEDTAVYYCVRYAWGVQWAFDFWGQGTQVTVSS VL: ALSYDLTQPPSVSGSPGKTVTISCAGTSSDVGYGNYVSWYQQLPGMAPKILIYDVNKRASGIADRFSGSKSGNTASLTISGLQSEDEADYYCASYRRGETIVFGGGTHLTVLG
Solution: 0.000315

Exercise: Value lookup for kd; key = 55E2b: 29B11 chain shuffled Fab, periplasmic fraction (antibody, V domains shown) VH: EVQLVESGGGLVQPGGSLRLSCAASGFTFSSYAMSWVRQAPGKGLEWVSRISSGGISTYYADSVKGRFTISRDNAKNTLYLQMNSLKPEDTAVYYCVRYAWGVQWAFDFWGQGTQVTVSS VL: AQSVLTQPPSVSGSPGKTVTISCAGTSSDVGYGNYVSWYQQLPGMAPKLLIYDVNKRASGIADRFSGSKFANTASLTISGLQSEDEADYYCASYKRGDNAVFGGGTKLTVLG
Solution: 6.72e-05

Exercise: Value lookup for kd; key = 29B11: antagonistic IL-6-specific Fab clone from immunized llama (antibody, listed as Lama glama, V domains shown) VH: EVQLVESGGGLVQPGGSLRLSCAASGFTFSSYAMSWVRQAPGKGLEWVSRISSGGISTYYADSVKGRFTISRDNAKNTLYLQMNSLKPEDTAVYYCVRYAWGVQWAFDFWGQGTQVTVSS VL: QSVLTQPPSVSGSPGQTVTISCAGTSEDVGYGNYVSWYQQLPGMAPKLLIYDVNKRASGIADRFSGSKSGNTASLTISGLQSEDEADYYCASYRRTIDNIFGGGTHLTVLG
Solution: 0.000131

Exercise: Value lookup for kd; key = 48C10: 29B11 chain shuffled Fab, periplasmic fraction (antibody, listed as Lama glama, V domains shown) VH: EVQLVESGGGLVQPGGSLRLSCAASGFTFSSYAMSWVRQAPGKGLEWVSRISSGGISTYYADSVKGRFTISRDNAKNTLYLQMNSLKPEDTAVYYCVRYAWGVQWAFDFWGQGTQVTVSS VL: AQSVLTQPPSVSGSPGQTVTISCAGTSEDVGYGNYVSWYQQLPGMAPKLLIYDVNKRASGIADRFSGSKSGNTASLTISGLQSEDEADYYCASYRRTIDNIFGGGTHLTVLG
Solution: 0.000184

Pending molecule:
Exercise: Value lookup for kd; key = 55H1c: 29B11 chain shuffled Fab, periplasmic fraction (antibody, V domains shown) VH: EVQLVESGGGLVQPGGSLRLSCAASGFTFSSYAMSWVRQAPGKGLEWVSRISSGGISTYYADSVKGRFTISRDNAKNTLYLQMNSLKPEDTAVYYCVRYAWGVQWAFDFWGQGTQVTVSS VL: AQSVVTQPPSVSGSPGKTVTISCAGTSSDVGYGNYVSWYQQLPGMAPKLLIYDVSKRASGIADRFSGSKSGNTASLTISGLQSEDEADYVCASYRRGGTAVFGGGTHLTVLG
Solution: 0.000127
